# Experimental target: GST-RORγ (Homo sapiens)
# Sequence (P51449 269-508 limits assumed): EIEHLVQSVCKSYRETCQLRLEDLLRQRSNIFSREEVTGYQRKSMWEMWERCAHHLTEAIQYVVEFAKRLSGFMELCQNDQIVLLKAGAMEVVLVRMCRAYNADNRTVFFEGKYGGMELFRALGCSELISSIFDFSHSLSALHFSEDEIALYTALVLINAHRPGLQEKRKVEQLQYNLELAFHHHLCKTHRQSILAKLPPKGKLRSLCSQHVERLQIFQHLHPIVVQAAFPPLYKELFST
# Assay text: Radioligand binding
# Applied conditions: versus 6p
Endpoint: RORγ activity in words (binding assay)

>>> val("COc1ccc(C(CC(=O)N2CCCC2)c2c(O)cc(OC)cc2OC)cc1 (centres unmarked)")
"loss of activity"
>>> val("COc1ccc(C(CC(=O)NC2CCCC2)c2c(O)cc(OC)cc2OC)cc1 (centres unmarked)")
"loss of activity"
>>> val("COc1ccc(C(CC(=O)N2CCCCC2)c2c(O)cc(OC)cc2OC)cc1 (centres unmarked)")
"loss of activity"
>>> val("COc1ccc(C(CC(=O)N2CCOCC2)c2c(O)cc(OC)cc2OC)cc1 (centres unmarked)")
"loss of activity"

Field: next compound
So what does the record say about RORγ activity in words (binding assay) for COc1ccc(C(CC(=O)NCc2ccccc2)c2c(O)cc(OC)cc2OC)cc1 (centres unmarked) ? loss of activity
